target: carbonic anhydrase I from human RBC (Homo sapiens, UniProt P00915); construct: carbonic anhydrase I from human RBC; purchased Sigma-Aldrich; host or cells: human RBC; assay: Thermal melt assay standardization; type: binding; conditions: read-out: calculated approximate dissociation constants
Sequence (P00915 whole entry): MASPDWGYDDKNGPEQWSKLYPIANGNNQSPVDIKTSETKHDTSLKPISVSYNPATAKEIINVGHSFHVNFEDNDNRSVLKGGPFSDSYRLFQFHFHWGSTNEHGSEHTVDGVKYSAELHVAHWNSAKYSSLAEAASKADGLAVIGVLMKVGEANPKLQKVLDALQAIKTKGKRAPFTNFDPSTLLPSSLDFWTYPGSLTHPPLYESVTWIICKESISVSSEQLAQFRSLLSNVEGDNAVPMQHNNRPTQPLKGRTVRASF
QUANTITY KIND: Kd

Just so you know, measured Kd for NS(=O)(=O)C(F)(F)F [TFMSA, trifluoromethane- sulfonamide] came out at 0.77 to 2.29 µM

====

Measured Q (quality score), listed per entry.
biological target: E. coli dihydrofolate reductase (DHFR) (Escherichia coli, UniProt P0ABQ4); test: biochemical; type: binding; settings: Table S3; ratio ΔFmelt/ΔFtotal of the melting curve
Sequence (P0ABQ4 whole entry): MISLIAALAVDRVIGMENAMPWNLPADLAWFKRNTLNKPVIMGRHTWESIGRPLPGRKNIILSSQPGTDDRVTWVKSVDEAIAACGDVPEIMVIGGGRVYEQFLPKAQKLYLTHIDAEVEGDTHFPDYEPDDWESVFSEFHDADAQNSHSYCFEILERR
Write the value as a bare number.

Look over these answered cases.
>>> reported("CC(C)=C(c1ccc(Cl)cc1)c1c(N)ncnc1N")
0.4
>>> reported("N/C(CC(=O)Nc1cc(C(F)(F)F)ccc1Cl)=N\\O")
0.3
>>> reported("Nc1ccc(NC(=O)c2ccc(C(=O)Nc3ccc(N)cc3)cc2)cc1")
0.2

--- query ---
compound O=C(Nc1ccc(Oc2ccc(NC(=O)Nc3ccc([N+](=O)[O-])cc3)cc2)cc1)Nc1ccc([N+](=O)[O-])cc1 , Q (quality score) observed: 0.3

====

target: UniProt P23381; experiment: Thermal shift (thermal melt) assay, Sypro orange; assay type: binding, H. sapiens; settings: Table S4; TrpRS; computed from the thermal shifts obtained; read-out: KD (Approx)
Sequence (P23381 whole entry): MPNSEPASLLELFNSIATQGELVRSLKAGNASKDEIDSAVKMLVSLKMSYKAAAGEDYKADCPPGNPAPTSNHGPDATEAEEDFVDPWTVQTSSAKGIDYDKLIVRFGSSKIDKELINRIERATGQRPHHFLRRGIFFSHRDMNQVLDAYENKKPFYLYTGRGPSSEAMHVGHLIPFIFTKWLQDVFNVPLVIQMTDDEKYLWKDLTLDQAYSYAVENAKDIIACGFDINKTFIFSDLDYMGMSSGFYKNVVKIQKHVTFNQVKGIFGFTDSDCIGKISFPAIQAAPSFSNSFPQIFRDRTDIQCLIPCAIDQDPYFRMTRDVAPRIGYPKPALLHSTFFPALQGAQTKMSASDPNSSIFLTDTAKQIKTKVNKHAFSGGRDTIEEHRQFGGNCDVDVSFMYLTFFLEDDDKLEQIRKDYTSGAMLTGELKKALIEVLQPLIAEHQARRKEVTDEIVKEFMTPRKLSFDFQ
pKd: −log10 of the molar value.
QUANTITY KIND: pKd

Examples with their reported pKd follow.
>>> reported("Nc1ccc(NC(=O)c2ccc(C(=O)Nc3ccc(N)cc3)cc2)cc1")
"~4.40"
>>> reported("Oc1cccc2nc3ccccc3nc12")
"~5.42"
>>> reported("CCOc1ccc(NC(=O)c2cc3ccccc3cc2O)cc1")
"~5.11"

Now for the molecule whose pKd we want.
// pKd lookup, molecule = O=C(Nc1cccc([N+](=O)[O-])c1)c1cc2ccccc2cc1O , result: ~5.04

====

biological target: E. coli dihydrofolate reductase (DHFR) (Escherichia coli, UniProt P0ABQ4); test: biochemical; assay type: binding; details: Table S3; thermal shift; in °C (unit assumed)
Listed compounds paired with reported ΔTm
Write no unit; give the number alone.

A selection of reference data follows.
>>> reported("O=C(Nc1ccc(Oc2ccc(NC(=O)Nc3ccc([N+](=O)[O-])cc3)cc2)cc1)Nc1ccc([N+](=O)[O-])cc1 [NSC 80735]")
18.16
>>> reported("C1=Cc2ccccc2Nc2ccccc21 [NSC 123458]")
14.17
>>> reported("CC(C)=C(c1ccc(Cl)cc1)c1c(N)ncnc1N [NSC 157522]")
10.13
>>> reported("Nc1ccc(NC(=O)c2ccc(C(=O)Nc3ccc(N)cc3)cc2)cc1 [NSC 55152]")
5.89
>>> reported("COc1cc(NCc2ccccc2O)c2ncccc2c1 [NSC 130801]")
5.84
>>> reported("N/C(CC(=O)Nc1cc(C(F)(F)F)ccc1Cl)=N\\O [NSC 379536]")
8.86

Turning now to a further record.
Entry under test: CCOc1ccc(NC(=O)c2cc3ccccc3cc2O)cc1 [NSC 50690] . Its ΔTm was 0.23

====

Biological target: 1000001: Carboxy-terminus phosphatase domain of protein tyrosine phosphatase (2NV5) (Mus musculus, UniProt Q64487)
Construct: The C-terminal phosphatase domain from R. norvegicus (PDB ID: 2NV5) (1000001); New York structural genomics consortium (gift)
Sequence (Q64487 1331-1621): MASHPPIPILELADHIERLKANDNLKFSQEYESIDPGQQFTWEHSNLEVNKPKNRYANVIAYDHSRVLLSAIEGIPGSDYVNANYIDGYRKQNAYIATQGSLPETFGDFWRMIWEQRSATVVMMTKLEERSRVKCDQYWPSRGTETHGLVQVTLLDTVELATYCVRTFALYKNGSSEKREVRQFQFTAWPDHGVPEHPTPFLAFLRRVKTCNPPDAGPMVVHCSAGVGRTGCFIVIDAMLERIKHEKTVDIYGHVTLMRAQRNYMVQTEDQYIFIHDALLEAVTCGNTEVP
Assay: Thermal shift (thermal melt) assay, Sypro orange
Assay type: binding, M. musculus
Settings: Table S4; protein 1000001; in °C (unit assumed)
QUANTITY KIND: ΔTm
API note: the answer field is a bare number with no unit suffix.

Worked set:
>>> reported("O=S(=O)(O)c1ccc(N=Nc2ccccc2)cc1")
4.1
>>> reported("Cc1ccc(N=Nc2ccc(N)cc2C)c(S(N)(=O)=O)c1")
11.7
>>> reported("COc1cc(N=Nc2ccccc2C(=O)O)ccc1O")
9.3
>>> reported("CCCCC(=O)OCC(=O)[C@]1(O)Cc2c(O)c3c(c(O)c2[C@@H](O[C@H]2C[C@H](NC(=O)C(F)(F)F)[C@H](O)[C@H](C)O2)C1)C(=O)c1c(OC)cccc1C3=O [NSC 246131, valrubicin, reference compound]")
9.99
>>> reported("O=C(O)c1cc(O)ccc1N=Nc1ccccc1")
7.4
>>> reported("CCOc1ccc(Nc2c3ccccc3nc3ccccc23)cc1")
7.3

So for O=C(O)Cc1ccc(N=Nc2c(O)c(C(=O)O)cc3ccccc23)cc1 , the logged ΔTm turned out to be 10.2

Per the record, Oc1cccc2nc3ccccc3nc12 has ΔTm of 9.98

Measured ΔTm of CC(=O)c1cc(O)c2ccccc2c1O : 11.3

====

target: UniProt:P23381; test: Thermal shift (thermal melt) assay, Sypro orange; format: binding, H. sapiens; details: Table S4; TrpRS; in °C (unit assumed)
Entries and their ΔTm
Please give the numeric answer without any surrounding text.

// ΔTm value for Oc1cccc2nc3ccccc3nc12 [NSC 88882] : 12.07

In plain terms, O=C(Nc1cccc([N+](=O)[O-])c1)c1cc2ccccc2cc1O [NSC 37168] has a documented ΔTm of 9.9

Item: Nc1ccc(NC(=O)c2ccc(C(=O)Nc3ccc(N)cc3)cc2)cc1 [NSC 55152] | ΔTm: 6.17

For record CCOc1ccc(NC(=O)c2cc3ccccc3cc2O)cc1 [NSC 50690] the listed ΔTm is 10.27

====

molecular target: Ubiquitin conjugating enzyme (UCE) (Plasmodium falciparum); experiment: Thermal shift (thermal melt) assay, Sypro orange; type: binding, P. falciparum; details: approximate, computed from the thermal shift; listed as 50651; read-out: KD (Approx)
Sequence (Q8I607 1-147): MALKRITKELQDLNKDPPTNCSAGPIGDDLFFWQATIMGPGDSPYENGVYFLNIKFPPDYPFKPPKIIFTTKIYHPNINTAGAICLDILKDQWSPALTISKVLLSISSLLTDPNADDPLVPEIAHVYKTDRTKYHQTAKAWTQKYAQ
QUANTITY KIND: pKd
Expect pKd as a plain number equal to -log10 of the molar concentration.

// sample O=C(Nc1ccc(Cl)cc1)c1cc2c(cc1O)[nH]c1ccccc12 , its pKd was 3.71

====

Target: 1000001: Carboxy-terminus phosphatase domain of protein tyrosine phosphatase (2NV5) (Mus musculus, UniProt Q64487)
Construct: The C-terminal phosphatase domain from R. norvegicus (PDB ID: 2NV5) (1000001); New York structural genomics consortium (gift)
Experiment: Thermal shift (thermal melt) assay, Sypro orange
Format: binding, M. musculus
Conditions: Table S6; 1000001; known binders of 1000001; in °C (unit assumed)
Experimental: High throughput thermal shift assays were carried out following established guidelines (Additional file 1: Table S1). Protein melting curves were obtained from samples aliquoted in 96-well plates using a RealPlex quantitative PCR instrument from Eppendorf (Eppendorf, NY, USA), with Sypro orange dye from Invitrogen as the fluorescent probe. […] The dye was excited at 465 nm and emission recorded at 580 nm using the instrument’s filters. […]
QUANTITY KIND: ΔTm
Give the value as a plain number.

A selection of reference data follows.
>>> reported("Oc1cccc2nc3ccccc3nc12")
9.79
>>> reported("NS(=O)(=O)c1ccc(N=Nc2c(O)c(C(=O)O)cc3ccccc23)cc1")
11.33
>>> reported("Cc1ccc(N=Nc2ccc(N)cc2C)c(S(N)(=O)=O)c1")
11.79
>>> reported("CCOc1ccc(Nc2c3ccccc3nc3ccccc23)cc1")
9.91
>>> reported("COc1cc(N=Nc2ccccc2C(=O)O)ccc1O")
9.70
>>> reported("O=S(=O)(O)c1ccc(N=Nc2ccccc2)cc1")
4.23
>>> reported("O=C(O)Cc1ccc(N=Nc2c(O)c(C(=O)O)cc3ccccc23)cc1")
10.66
>>> reported("CCCCC(=O)OCC(=O)[C@]1(O)Cc2c(O)c3c(c(O)c2[C@@H](O[C@H]2C[C@H](NC(=O)C(F)(F)F)[C@H](O)[C@H](C)O2)C1)C(=O)c1c(OC)cccc1C3=O [NSC 246131, valrubicin, reference compound]")
10.31

Let's switch to this compound now.
Reported ΔTm of O=C(O)c1cc(O)ccc1N=Nc1ccccc1 : 7.34

====

Listed here are molecules together with their documented Kd.
target: 1000001: Carboxy-terminus phosphatase domain of protein tyrosine phosphatase (2NV5) (Mus musculus, UniProt Q64487); construct: The C-terminal phosphatase domain from R. norvegicus (PDB ID: 2NV5) (1000001); New York structural genomics consortium (gift); assay: Thermal shift (thermal melt) assay, Sypro orange; format: binding, M. musculus; settings: Table S4; protein 1000001; computed from the thermal shifts obtained; read-out: KD (Approx)

// worked examples, Kd included
>>> reported("CCCCC(=O)OCC(=O)[C@]1(O)Cc2c(O)c3c(c(O)c2[C@@H](O[C@H]2C[C@H](NC(=O)C(F)(F)F)[C@H](O)[C@H](C)O2)C1)C(=O)c1c(OC)cccc1C3=O [NSC 246131, valrubicin, reference compound]")
"~1470 nM"
>>> reported("O=C(O)c1cc(O)ccc1N=Nc1ccccc1")
"~6470 nM"
>>> reported("NS(=O)(=O)c1ccc(N=Nc2c(O)c(C(=O)O)cc3ccccc23)cc1")
"~406 nM"
>>> reported("O=C(O)Cc1ccc(N=Nc2c(O)c(C(=O)O)cc3ccccc23)cc1")
"~1320 nM"
>>> reported("Cc1ccc(N=Nc2ccc(N)cc2C)c(S(N)(=O)=O)c1")
"~567 nM"

// recorded Kd for CC(=O)c1cc(O)c2ccccc2c1O : ~709 nM

The value of Kd measured for the molecule CCOc1ccc(Nc2c3ccccc3nc3ccccc23)cc1 turned out to be ~6850 nM

The origin of these recorded values is paper PMC4038399.
